# assay_target: T1, CD19 antigen on Daudi lymphoma cells (human, UniProt P15391 20-556)
# T1 construct: whole, on cells; also called Daudi cells
# T1 sequence (looked up): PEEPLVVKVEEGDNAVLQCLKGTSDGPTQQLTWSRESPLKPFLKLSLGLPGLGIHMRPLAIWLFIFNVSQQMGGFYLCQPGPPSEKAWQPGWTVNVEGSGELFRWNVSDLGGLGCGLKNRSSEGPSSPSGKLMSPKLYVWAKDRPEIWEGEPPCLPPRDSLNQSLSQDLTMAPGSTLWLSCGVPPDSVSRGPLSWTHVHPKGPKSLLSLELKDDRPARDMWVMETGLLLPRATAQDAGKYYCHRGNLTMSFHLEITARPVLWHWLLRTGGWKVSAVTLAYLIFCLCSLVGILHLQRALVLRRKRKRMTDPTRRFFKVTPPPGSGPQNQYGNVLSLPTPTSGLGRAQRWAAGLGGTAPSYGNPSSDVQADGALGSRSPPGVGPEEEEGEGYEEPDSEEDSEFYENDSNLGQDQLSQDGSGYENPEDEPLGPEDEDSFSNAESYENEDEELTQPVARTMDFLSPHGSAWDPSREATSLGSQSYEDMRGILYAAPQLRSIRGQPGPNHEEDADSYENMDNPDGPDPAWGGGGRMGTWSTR
# assay: FACS competition on Daudi cells; unlabeled antibody 50 ng/ml (0.5x) vs competitor biotin-B4 VH0/VK0 100 ng/ml
# Protocol: Briefly, a titration series was prepared of biotin-labeled B4 VH0/VK0 antibody pre-mixed at a final concentration of 100 ng/ml with one of the unlabeled, experimental B4 VHvx/VKvy antibodies at 800 ng/ml, 400 ng/ml, 200 ng/ml, 100 ng/ml, and 50 ng/ml in a PBS/2% serum buffer. […] Bound amount of labeled B4 VH0/VK0 antibody was quantitated by FACS analysis, and the results were expressed as “percent inhibition,” relative to the positive binding control. […]
Collected % inhibition of labeled B4 binding values appear next to each entry.

binder | % inhibition of labeled B4 binding (%)
B4 VHv1/VKv2 antibody (antibody, V domains shown) VH: QVQLQQPGAEVVKPGASVRLSCETSGYTFTSNWMHWVKQRPDQGLEWIGEIDPSDSYTNYNQKFKGKAELTVDKSSSTAYMEVSDLTSEDSAVYYCARGSNPYYYAMDYWGQGTSVTVSS VL: DIVLTQSPATLSASPGEKVTMTCSASSGVNYMHWYQQKPGTSPKRWIYDTSKLDSGVPARFSGSGSGTSYSLTISSMEAEDAATYYCHQRGSYTFGGGTKLEIK | 12
B4 VH0/VK0 antibody (antibody, V domains shown, Expressed from pdHL12 as intact heavy and light chains; also called parental B4 antibody) VH: QVQLQQPGAEVVKPGASVRLSCKTSGYTFTSNWMHWVKQRPGQGLEWIGEIDPSDSYTNYNQKFKGKAKLTVDKSSSTAYMEVSSLTSEDSAVYYCARGSNPYYYAMDYWGQGTSVTVSS VL: QIVLTQSPAIMSASPGEKVTMTCSASSGVNYMHWYQQKPGTSPKRWIYDTSKLASGVPARFSGSGSGTSYSLTISSMEAEDAATYYCHQRGSYTFGGGTKLEIK | 16
B4 VHv1/VKv1 antibody (antibody, V domains shown) VH: QVQLQQPGAEVVKPGASVRLSCETSGYTFTSNWMHWVKQRPDQGLEWIGEIDPSDSYTNYNQKFKGKAELTVDKSSSTAYMEVSDLTSEDSAVYYCARGSNPYYYAMDYWGQGTSVTVSS VL: QIALTQEPAIMSASPGEKVTMTCSASSGVNYMHWYQQKPGTSPKRWIYDTSKLDSGVPARFSGSGSGTSYSLTISSMEAEDAATYYCHQRGSYTFGGGTKLEIK | 12
